B1: library; numbered along this chain (parent)
chain: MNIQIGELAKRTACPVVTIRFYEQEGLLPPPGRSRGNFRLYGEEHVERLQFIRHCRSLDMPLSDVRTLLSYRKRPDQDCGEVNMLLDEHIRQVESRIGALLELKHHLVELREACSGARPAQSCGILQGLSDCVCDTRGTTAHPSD

Variants of: B1
experimentSummary: sfGFP reporter fluorescence (15 h) (µM FITC); higher = higher leak
assayContext: library round: Round 0; ligand: none
measuredEndpoint: sfGFP reporter fluorescence
Answer as a number with no unit attached.

Q. Give its sfGFP reporter fluorescence value. Item: Y22D
A. 0.0607

Q. Which sfGFP reporter fluorescence reading was recorded for the variant C123Y ?
A. 0.0586

Q. I'd like to know its sfGFP reporter fluorescence. The variant in question is R20L
A. 0.061

Q. Dear colleague, I am looking for the recorded sfGFP reporter fluorescence of the following variant: N83C
A. 0.0601
